experimentalSystem: MDM2_(Reptiles/Mammals)^AltAll
testDetails: stopped-flow fluorescence kinetics; 10°C, 20 mM sodium phosphate pH 7.4, 150 mM NaCl, 1 mM TCEP; Trp23 emission; MDM2 constant at 0.5–2 μM, p53TAD varied 1–10 μM for k on; k off from displacement of the 1 μM:1 μM complex by 10–20 μM dansylated human p53TAD peptide; K D = k off/k on
studyConditions: both partners purified
Ends that are not written are not given here.
endpoint: pKd
Convention used: pKd is expressed as -log10 of the molar concentration.

The binder SQETFSDLWNML (not fully specified (N-terminus); also: acetylated, site not given here) [p53TAD_(Reptiles/Mammals)^AltAll] showed pKd equal to 6.70
